System: SK-OV-3 ovarian
Assay: NCI-60 one-dose screen, 48 h
Settings: 10 µM
About 83,000 compounds went through this panel and 20% of them were active in at least one assay; those are over-represented in the sample as a whole. Activity calls are given as the source filed them. How the source made its calls: active means growth percent below 10; inactive means the rest.
Use one of these outcomes when replying: class 1 = active, class 0 = inactive

Example entries begin here.
- N#Cc1c(NC(=O)c2ccc(C(F)(F)F)cc2)sc2c1CCC(O)=C2: class 0
- COC[C@@H](CC(C)C)N=C1NC(=O)/C(=C/c2ccc3ncsc3c2)N1: class 1
- NS(=O)(=O)c1ccc(NC(=O)CSc2ccc(-c3ccc(Cl)cc3)nn2)c(Br)c1: class 0

Incoming: Would you mind telling me which call this test gave Nc1n[nH]c2cccc(C#Cc3cccc(NC(=O)Nc4cc(C(F)(F)F)cc(C(F)(F)F)c4)c3)c12 ?
Outgoing: class 1

----------
System: ACHN renal
Assay: NCI-60 one-dose screen, 48 h (100 = growth as untreated, 0 = no growth, -100 = all killed)
Conditions: 10 µM
About 83,000 compounds went through this panel and 20% of them were active in at least one assay; those are over-represented in the sample as a whole.
Mark YES only when growth stays strictly below 10%. Values equal to the cut-off are NO.

* COc1ccc(/C=C/C(=O)c2ccc(N3CCN(C)CC3)cc2)c(C(F)(F)F)c1 | NO
* CCCSc1nc(NC2CC2)c(C#N)c(-c2ccc(OC)cc2)n1 | NO
* NS(=O)(=O)c1ccc(NC(=O)CSc2ccc(-c3ccccc3)nn2)c(Br)c1 | NO

Incoming: Consider COc1ccc(-c2nc(S(=O)(=O)c3ccccc3)c(S(C)(=O)=O)o2)cc1 . Does its growth lie strictly below 10%?
Outgoing: YES

----------
System: NCI-H522 lung
Test: NCI-60 one-dose screen, 48 h (100 = growth as untreated, 0 = no growth, -100 = all killed)
Conditions: 10 µM
Compounds without any hit were thinned out: in the full panel of roughly 83,000, 20% have a hit.
PROPERTY: growth (%)
Answers are plain numbers, in %.

Hey, quick one: what's growth for each of these?
1. CC(C)NC(=O)c1cc(-c2ccc(NC(=O)Nc3ccc(N4CCN(C)CC4)c(C(F)(F)F)c3)cc2)nc2cccnc12
2. Cc1ccc(-c2nc(Nc3ccccc3C(=O)O)c3ccccc3n2)cc1
3. O=C(N/C(=C1/OCCN1Cc1ccccc1)[P+](c1ccccc1)(c1ccccc1)c1ccccc1)c1ccccc1
4. CN1CCc2c(sc3ncnc(N/N=C/c4ccc5ccccc5c4)c23)C1
5. COc1cc(/C=C/C(=O)c2ccc(NC(=O)CN3C(=O)NC(C)(c4ccccc4)C3=O)cc2)cc(OC)c1OC (stereo not drawn)

Outgoing:
[-90.8, 33.2, -6.25, 83.9, 32.8]

Hey, quick one: what's growth for each of these?
1. COc1ccc(C2N(c3ccc(Br)cc3)N=C(C(C)=O)N2[C@H]2[C@H](OC(C)=O)O[C@H](COC(C)=O)[C@@H](OC(C)=O)[C@@H]2OC(C)=O)cc1 (stereo partly drawn)
2. C=C(c1ccc(OC)c(N)c1)c1cc(C)nc2ccccc12

Outgoing:
1. 48.1
2. -29.4

Hey, quick one: what's growth for each of these?
1. COc1cc(Cn2c(C(F)(F)F)cc3c(Cl)ncnc32)ccn1
2. C/C(=N\NC(N)=S)c1ccc(Nc2nc(SC(C)C)nc(-c3ccccc3)c2C#N)cc1
3. CC(C)C1=C[C@@]23CC[C@@H]4[C@](C)(CCC[C@]4(C)C(=O)NCc4ccccc4)[C@H]2C[C@@H]1[C@H]1C(=O)CCC(=O)[C@H]13
4. COc1ccc(C(=O)/C=C/c2cc(C(F)(F)F)cc(C(F)(F)F)c2)cc1S(N)(=O)=O
5. O=C1Nc2cc(Cl)ccc2/C1=C/c1cccc(OCc2ccccc2)c1

Outgoing:
1. 56
2. 78
3. -12.5
4. -67.7
5. -63

Hey, quick one: what's growth for each of these?
1. C#CCNC(=O)CCC(=O)OC[C@]12CC[C@@H](C(=C)C)[C@@H]1C1CC[C@@H]3[C@@]4(C)CCCNC(C)(C)[C@@H]4CC[C@@]3(C)[C@]1(C)CC2 (stereo partly drawn)
2. CCOC(=O)C1NN(c2ccc(S(N)(=O)=O)cc2)c2nc3nc(-c4cccs4)cc(-c4cccs4)c3c(=O)n21 (stereo not drawn)
3. CC(=C(c1ccc(OCCN2CCCCCC2)cc1)c1ccc(OCCN2CCCCCC2)cc1)c1ccc(Cl)cc1
4. CCNCCCn1c2c(c3cc(OC)c(OC)cc3c1=O)C(=O)c1cc3c(nc1-2)OCO3
5. Cc1ccc(C(=O)Nc2ccc(-n3c(C)nc4c(cnn4-c4ccccc4)c3=O)cc2)cc1

Outgoing:
1. -82.7
2. 77.2
3. -92.7
4. 35.8
5. 71.2

----------
Test system: BT-549 breast
Assay: NCI-60 one-dose screen, 48 h (100 = growth as untreated, 0 = no growth, -100 = all killed)
Conditions: 10 µM
About 83,000 compounds went through this panel and 20% of them were active in at least one assay; those are over-represented in the sample as a whole.
Mark Fulfilled only when growth stays strictly below 20%. Values equal to the cut-off are Not fulfilled.

- COc1ccc(N(C)c2cc(C#N)nc3ccccc23)cc1N: Not fulfilled
- Cc1noc2c(Cc3ccc([N+](=O)[O-])cc3)nn(CC(=O)N/N=C/c3ccc(Br)cc3)c(=O)c12: Not fulfilled
- CN1C(=O)N(C)C2SC(N/N=C/c3ccccc3F)=NC21 (stereo unspecified): Not fulfilled
- Cc1cc(=O)oc2cc(OCCCCOc3ccc(/C=C/C(=O)Nc4ccc(F)c(Cl)c4)cc3)ccc12: Not fulfilled
- CN1CCN(Cc2ccc(NC(=O)c3cncc(C#Cc4cnc5ccc(N[C@H]6CCOC6)nn45)c3)cc2C(F)(F)F)CC1: Fulfilled
- Cc1cc2nc3c4ccccc4n(CCO)c3nc2cc1C: Not fulfilled
- N[C@@H](CSSC[C@H](N)C(=O)Nc1ccc(OCC2CCCC2)cc1)C(=O)Nc1ccc(OCC2CCCC2)cc1: Fulfilled
- CC(=O)c1cc(C(=O)c2ccc3c(c2)NC(=O)CO3)n2ccc3ccccc3c12: Not fulfilled

Incoming: Consider Cc1ccc(NCC(=O)Nn2c(COc3ccccc3)nc3ccccc3c2=O)cc1 . Does its growth lie strictly below 20%?
Outgoing: Not fulfilled

Incoming: Consider O=C1CCC(N2Cc3cc(CC(=O)Nc4ccc(N5CCCCC5)cc4)ccc3C2=O)C(=O)N1 (stereo unspecified) . Does its growth lie strictly below 20%?
Outgoing: Fulfilled

Incoming: Consider COc1cc2c3c(n(CCCN4CCOCC4)c(=O)c2cc1OC)-c1nc2c(cc1C3=O)OCO2 . Does its growth lie strictly below 20%?
Outgoing: Fulfilled

Incoming: Consider COc1ccc2c3nc4cc(C)c(C)cc4nc3n(CCN(C)C)c2c1 . Does its growth lie strictly below 20%?
Outgoing: Not fulfilled

Incoming: Consider CC1(c2ccccc2)NC(=O)N(CC(=O)Nc2ccc(C(=O)/C=C/c3ccc(Cl)cc3)cc2)C1=O (stereo unspecified) . Does its growth lie strictly below 20%?
Outgoing: Fulfilled

----------
Tested on: SNB-75 CNS
Test: NCI-60 one-dose screen, 48 h
Conditions: 10 µM
The panel holds about 83,000 compounds, 20% with a hit somewhere; the sample as a whole holds those more often. Active and inactive are the calls of the source. Rule for the calls: active = growth percent below 10; inactive = the rest.
Use one of these outcomes when replying: yes (1) for active, no (0) for inactive

Example entries begin here.
• COc1ccc2[nH]c(=O)c(CSc3ccc(Nc4nccc(-c5ccc(Cl)cc5)n4)cc3)cc2c1 = no (0)
• COc1ccc2cc([C@H](C)C(=O)NCc3ccccc3)ccc2c1 = yes (1)
• CC(C)C1=C[C@@]23CC[C@@H]4[C@](C)(CCC[C@]4(C)C(=O)NCc4ccccc4)[C@H]2C[C@@H]1[C@H]1C(=O)OC(=O)[C@H]13 = no (0)
• Cn1cc(-c2cc(N)n3nc(-c4c[nH]c5ccc(Br)cc45)cc3n2)c2cc(Br)cnc21 = yes (1)
• C=C1CCC2C3(C)COC(c4cc(F)cc(F)c4)OC3CCC2(C)C1C/C=C1/C(=O)OCC1O (stereo unspecified) = yes (1)

Incoming: Would you mind telling me which call this test gave COc1ccc(C(C)=C(c2ccc(OCCCN(C)C)cc2)c2ccc(OCCCN(C)C)cc2)cc1 ?
Outgoing: yes (1)

Incoming: Would you mind telling me which call this test gave O=C(CS(=O)(=O)c1oc(-c2ccc(Cl)cc2)nc1S(=O)(=O)c1ccccc1)N1CCCC1 ?
Outgoing: no (0)

Incoming: Would you mind telling me which call this test gave COc1ccc2[nH]c(O)c(N=NC(=O)c3cc(-c4ccc(C)cc4)nc4ccccc34)c2c1 ?
Outgoing: no (0)

Incoming: Would you mind telling me which call this test gave O=C(NO)c1ccc(-c2nc3ccc4[nH]ncc4c3c3c2CCCC3)cc1 ?
Outgoing: yes (1)

Incoming: Would you mind telling me which call this test gave COC(=O)C(Cc1ccc(O)c(O)c1)NC(=O)C(CSC/C=C(\C)CCCC(C)CCCC(C)CCCC(C)C)NC(C)=O (stereo unspecified) ?
Outgoing: no (0)

Incoming: Would you mind telling me which call this test gave Cc1cccc2cc(-c3cc(-c4ccccc4)nc(=O)[nH]3)c(Cl)nc12 ?
Outgoing: no (0)

Incoming: Would you mind telling me which call this test gave O=C(Cc1ccc2c(c1)CN(C1CCC(=O)NC1=O)C2=O)NCCc1ccccc1 (stereo unspecified) ?
Outgoing: yes (1)

Incoming: Would you mind telling me which call this test gave O=C(O)CCCCCCCCCCN1C(=O)/C(=C/c2cnc(-c3ccc(Cl)cc3)s2)SC1=S ?
Outgoing: no (0)
